Biological target: N-type calcium channel (Homo sapiens, UniProt Q00975)
Construct: Human neuroblastoma cell IMR-32 was obtained from ATCC (American Type Culture Collection); host or cells: IMR-32 human neuroblastoma cells, differentiated with dibutyl cAMP and bromodeoxyuridine
Sequence (Q00975 whole entry): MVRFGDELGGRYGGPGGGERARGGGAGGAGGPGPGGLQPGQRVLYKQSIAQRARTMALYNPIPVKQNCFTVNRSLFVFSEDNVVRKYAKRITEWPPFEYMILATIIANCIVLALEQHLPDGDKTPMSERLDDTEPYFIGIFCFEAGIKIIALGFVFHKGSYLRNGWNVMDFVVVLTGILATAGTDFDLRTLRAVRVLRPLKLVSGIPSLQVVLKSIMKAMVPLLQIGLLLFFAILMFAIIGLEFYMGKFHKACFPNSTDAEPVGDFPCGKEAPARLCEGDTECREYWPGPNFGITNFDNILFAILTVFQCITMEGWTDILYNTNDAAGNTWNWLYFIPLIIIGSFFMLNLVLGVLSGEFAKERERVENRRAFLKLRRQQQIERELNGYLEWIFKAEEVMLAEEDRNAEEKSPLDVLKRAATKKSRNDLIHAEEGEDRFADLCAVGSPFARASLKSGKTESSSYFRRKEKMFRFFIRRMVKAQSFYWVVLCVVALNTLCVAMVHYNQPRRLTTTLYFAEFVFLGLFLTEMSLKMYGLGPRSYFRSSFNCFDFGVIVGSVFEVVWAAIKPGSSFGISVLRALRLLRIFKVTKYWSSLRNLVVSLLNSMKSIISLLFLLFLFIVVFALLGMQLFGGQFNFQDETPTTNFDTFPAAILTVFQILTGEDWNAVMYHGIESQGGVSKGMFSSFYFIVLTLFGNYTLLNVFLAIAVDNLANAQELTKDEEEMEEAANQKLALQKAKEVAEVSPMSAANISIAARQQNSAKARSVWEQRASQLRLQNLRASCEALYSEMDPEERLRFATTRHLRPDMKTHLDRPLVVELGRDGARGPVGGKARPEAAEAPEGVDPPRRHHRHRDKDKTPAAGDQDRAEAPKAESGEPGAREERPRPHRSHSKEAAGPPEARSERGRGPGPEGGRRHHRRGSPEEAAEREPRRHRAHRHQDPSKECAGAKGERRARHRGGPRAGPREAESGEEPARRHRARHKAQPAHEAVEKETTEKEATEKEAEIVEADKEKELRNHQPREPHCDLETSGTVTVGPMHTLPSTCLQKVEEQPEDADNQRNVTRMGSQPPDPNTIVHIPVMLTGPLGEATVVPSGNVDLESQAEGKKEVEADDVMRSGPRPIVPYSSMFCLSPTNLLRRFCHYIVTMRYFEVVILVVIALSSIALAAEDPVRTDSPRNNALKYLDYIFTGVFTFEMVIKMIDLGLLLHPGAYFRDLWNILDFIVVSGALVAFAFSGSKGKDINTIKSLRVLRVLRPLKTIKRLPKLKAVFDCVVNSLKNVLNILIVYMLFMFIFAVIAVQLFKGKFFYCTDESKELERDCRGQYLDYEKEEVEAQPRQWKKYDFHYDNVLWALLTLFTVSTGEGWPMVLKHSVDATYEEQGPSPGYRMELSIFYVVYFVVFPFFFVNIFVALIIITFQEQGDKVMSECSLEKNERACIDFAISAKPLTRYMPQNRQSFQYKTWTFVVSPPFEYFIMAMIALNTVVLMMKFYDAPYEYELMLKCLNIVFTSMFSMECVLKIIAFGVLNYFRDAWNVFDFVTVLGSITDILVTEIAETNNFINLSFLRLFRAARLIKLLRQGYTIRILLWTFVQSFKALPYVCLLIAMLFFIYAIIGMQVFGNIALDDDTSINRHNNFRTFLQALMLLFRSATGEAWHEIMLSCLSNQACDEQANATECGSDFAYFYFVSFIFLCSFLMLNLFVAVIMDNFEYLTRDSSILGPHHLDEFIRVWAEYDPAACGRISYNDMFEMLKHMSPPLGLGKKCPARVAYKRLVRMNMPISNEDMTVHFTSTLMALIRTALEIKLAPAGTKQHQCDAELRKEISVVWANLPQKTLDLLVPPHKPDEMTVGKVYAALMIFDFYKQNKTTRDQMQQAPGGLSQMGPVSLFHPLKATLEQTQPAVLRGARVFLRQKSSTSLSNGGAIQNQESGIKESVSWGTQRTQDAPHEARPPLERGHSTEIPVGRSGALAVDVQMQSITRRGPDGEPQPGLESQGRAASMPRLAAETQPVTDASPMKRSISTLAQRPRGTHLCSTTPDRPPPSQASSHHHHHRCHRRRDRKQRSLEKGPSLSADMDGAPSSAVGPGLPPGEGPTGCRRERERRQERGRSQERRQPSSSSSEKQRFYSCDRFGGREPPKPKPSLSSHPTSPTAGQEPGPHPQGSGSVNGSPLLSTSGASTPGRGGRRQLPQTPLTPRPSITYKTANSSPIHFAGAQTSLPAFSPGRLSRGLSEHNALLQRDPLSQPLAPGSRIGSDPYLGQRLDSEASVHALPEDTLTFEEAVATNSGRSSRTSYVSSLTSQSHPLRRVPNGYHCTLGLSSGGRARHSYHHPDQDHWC
Sequence (P54289 25-956 partner limits assumed): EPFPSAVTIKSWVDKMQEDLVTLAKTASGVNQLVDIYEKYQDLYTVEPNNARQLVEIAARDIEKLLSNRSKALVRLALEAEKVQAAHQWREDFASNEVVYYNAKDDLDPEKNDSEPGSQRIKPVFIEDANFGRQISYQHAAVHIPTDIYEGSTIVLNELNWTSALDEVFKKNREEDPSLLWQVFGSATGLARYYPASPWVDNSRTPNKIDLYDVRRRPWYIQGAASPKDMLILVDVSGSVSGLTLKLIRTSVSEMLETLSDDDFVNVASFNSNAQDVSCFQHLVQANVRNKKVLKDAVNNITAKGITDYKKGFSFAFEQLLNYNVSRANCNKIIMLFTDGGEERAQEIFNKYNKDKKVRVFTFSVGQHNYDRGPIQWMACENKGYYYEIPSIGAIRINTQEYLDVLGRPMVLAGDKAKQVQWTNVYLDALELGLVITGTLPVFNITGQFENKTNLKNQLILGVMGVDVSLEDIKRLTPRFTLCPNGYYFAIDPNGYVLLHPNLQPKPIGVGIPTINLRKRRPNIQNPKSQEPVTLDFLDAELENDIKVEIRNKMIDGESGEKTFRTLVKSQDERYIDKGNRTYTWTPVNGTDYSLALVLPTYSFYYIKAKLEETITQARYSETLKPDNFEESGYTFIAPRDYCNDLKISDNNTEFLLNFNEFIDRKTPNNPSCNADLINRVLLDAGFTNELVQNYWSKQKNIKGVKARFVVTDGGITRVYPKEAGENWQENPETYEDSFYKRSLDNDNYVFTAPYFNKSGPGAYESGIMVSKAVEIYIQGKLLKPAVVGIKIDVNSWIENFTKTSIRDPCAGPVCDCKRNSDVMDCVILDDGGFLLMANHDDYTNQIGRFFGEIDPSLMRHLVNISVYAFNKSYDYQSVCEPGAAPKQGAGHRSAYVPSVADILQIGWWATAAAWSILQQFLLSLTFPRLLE
Sequence (P54289 957-1103 partner limits assumed): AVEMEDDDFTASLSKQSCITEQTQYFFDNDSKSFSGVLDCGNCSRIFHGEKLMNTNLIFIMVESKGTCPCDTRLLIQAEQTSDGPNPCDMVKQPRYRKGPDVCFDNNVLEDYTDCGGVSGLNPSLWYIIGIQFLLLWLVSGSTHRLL
Sequence (P54284 whole entry partner): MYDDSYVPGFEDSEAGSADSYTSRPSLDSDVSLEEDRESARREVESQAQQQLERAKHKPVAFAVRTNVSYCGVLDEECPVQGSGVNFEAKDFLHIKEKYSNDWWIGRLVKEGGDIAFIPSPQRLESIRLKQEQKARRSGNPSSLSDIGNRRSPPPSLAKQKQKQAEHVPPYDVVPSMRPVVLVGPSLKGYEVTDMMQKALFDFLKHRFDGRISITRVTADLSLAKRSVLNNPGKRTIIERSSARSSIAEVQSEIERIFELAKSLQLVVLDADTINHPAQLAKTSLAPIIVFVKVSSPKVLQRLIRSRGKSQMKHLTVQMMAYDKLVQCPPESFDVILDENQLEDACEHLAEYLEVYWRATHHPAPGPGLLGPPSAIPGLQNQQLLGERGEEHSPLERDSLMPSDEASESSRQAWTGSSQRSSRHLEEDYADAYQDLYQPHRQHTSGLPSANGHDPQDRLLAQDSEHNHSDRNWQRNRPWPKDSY
Experiment: Activity of inhibiting N-type calcium channel (fluorescent dye method), IMR-32 cells
Format: cell-based
Details: fluorescent dye (fura-2) method, 60 mM KCl stimulation, 1 μM Nifedipine present, read-out: N-type inhibition pIC50 (converted)
observed_property: IC50 (nM)
Answers are plain numbers, in nM.

Study these solved cases before continuing.
- compound: "CC1=C(C(=O)O)C(c2ccc([N+](=O)[O-])cc2)C(C(=O)NCC=Cc2ccccc2)=C(C)N1 (stereo not drawn)"
  measurement_unit: "nM"
  observed_result: 1580
- compound: "CC1=C(C(=O)O)C(c2cccc([N+](=O)[O-])c2)C(C(=O)NC/C=C/c2ccccc2)=C(C)N1 (stereo not drawn)"
  measurement_unit: "nM"
  observed_result: 1580
- compound: "CC1=C(C(=O)O)C(c2cccc(C#N)c2)C(C(=O)NCC=Cc2ccccc2)=C(C)N1 (stereo not drawn)"
  measurement_unit: "nM"
  observed_result: 2510
- compound: "CC1=C(C(=O)O)C(c2cccc(Cl)c2)C(C(=O)NCC(=O)Nc2ccccc2)=C(C)N1 (stereo not drawn)"
  measurement_unit: "nM"
  observed_result: 794
- compound: "CC1=C(C(=O)O)C(c2cccc(Cl)c2)C(C(=O)NCC=Cc2ccccc2)=C(C)N1 (stereo not drawn)"
  measurement_unit: "nM"
  observed_result: 5010

Moving on to the next compound.
## Input Value lookup for IC50; key = CC1=C(C(=O)O)C(c2cccc(Cl)c2)C(C(=O)NCCC(c2ccccc2)c2ccccc2)=C(C)N1 (stereo not drawn)
## Output 631
